Readings of melting point for the listed molecules

Use these answered entries as a reference point.
| molecule | melting point |
| --- | --- |
| CN(C)CCn1c(=O)c2cc([N+](=O)[O-])ccc2c2cnc3cc4c(cc3c21)OCO4 | 204 to 205 °C |
| CC(=NOCCOc1ccc(CC2SC(=O)N(C(c3ccccc3)(c3ccccc3)c3ccccc3)C2=O)cc1)c1ccc(-c2ccccc2)cc1 (centres undefined) | 145 °C |
| N=C(O[C@@H]1CCCC=C1Cl)C(Cl)(Cl)Cl | 78 to 79 °C |

# input Which melting point value belongs to "COc1cc2nc(N)nc(-c3cccc(O)c3)c2cc1OC" ?
# output 256 to 258 °C

* * *

Consider the following compounds and their measured melting point readings.

Some solved cases for reference:
| compound | melting point |
| --- | --- |
| Clc1cc2nc(Cl)c(N3CCNCC3)nc2cc1Cl | > 300 °C |
| O=C(NCCCl)NCC1(Cc2ccccc2)CC(=O)C(OCc2ccccc2)=CN1 (stereo not given) | 130 °C |
| C=CCC12CC(=O)N(C)C1(O)CCc1ccc(OCc3ccccc3)cc12 (stereo not given) | 188 to 190 °C |
| Cc1ccnc(-c2cncc(OC3SCC(O)C(O)C3O)c2)c1 (stereo not given) | 166 °C |
| O=c1[nH]c2ccc(S(=O)CCCl)cc2o1 (stereo not given) | 150 to 155 °C |
| CC(C)NCCC(CCN1CCCCC1)(C(N)=O)c1ccccc1Cl (stereo not given) | 134 to 137 °C |
| C[C@]12CC(=C(F)F)[C@H]3[C@@H](CCC4=CC(=O)CC[C@@H]43)[C@@H]1CCC2=O | 158 to 164 °C |
| OC(COCc1ccc(Br)cc1)Cn1ccnc1 (stereo not given) | 98 to 100 °C |
| O=C(O)c1ccccc1Oc1ccc(C(F)(F)F)cc1NS(=O)(=O)c1ccc(C(F)(F)F)cc1 | 175 °C |
| Cc1cc(N2CCN(c3nc(-c4ccccc4)nc(C)c3C)CC2)cc(C)c1O | 188 to 189 °C |

# input Recorded melting point for "N[C@H]1CC[C@H](CNc2ncc3ncnc(Nc4ccc(F)c(Cl)c4)c3n2)CC1" , please?
# output 166 to 169 °C

# input # get_value(readout='melting point', item= C#CC(C)N(C)C(=O)Nc1ccc(Oc2cccc(Cl)n2)cc1 (stereo not given) )
# output 140 to 142 °C

# input Bench note: what melting point did "Nc1cc(-c2ccccc2)nn1-c1c(Cl)cc(C(F)(F)F)cc1Cl" show?
# output 142 °C

# input Suppose we examine the compound CCOC(=O)c1c(-c2ccc(Cl)s2)ccnc1C(C(=O)OCC)c1cc(OC)cc(OC)n1 (stereo not given) ; what melting point value has been reported?
# output 127 to 132 °C

# input Reported melting point for CC1=C(C(=S)Cc2ccccc2)C(c2ccccc2)C2=C(N1)c1ccccc1C2=O (stereo not given) : what is it?
# output 226 to 228 °C

* * *

Reported melting point values follow for various molecules

# input Item O=C1CCC(c2cccc(F)c2)(c2cccc(F)c2)[C@@H]2CN(Cc3ccccc3)C[C@H]12 (racemic) has what recorded melting point?
# output 124 °C

# input Would you kindly share the measured melting point for CCCCOC(=O)C1CC2CC(CP(=O)(O)O)CCC2CN1 (centres undefined) ?
# output 161 to 169 °C

# input Look at this molecule and give its reported melting point. CC(C)(C)OC(=O)NC(Cc1ccccc1)C(O)C(Cc1ccccc1)NC(=O)[C@H](CC(N)=O)NC(=O)OCc1ccccc1 (some centres undefined)
# output 216 to 217 °C

# input Can you look up the measured melting point of CCOC(=O)C1=C(COCc2cc(=O)[nH]c(N)n2)NC(C)=C(C(=O)OC)C1c1cccc(Cl)c1Cl (centres undefined) for me?
# output 222 to 225 °C

* * *

Here, each record is paired with measured melting point data.

Consider the following illustrative entries.
| compound | melting point |
| --- | --- |
| ON=C(Cc1ccccc1)c1cccnc1 | 122 to 126 °C |
| CCn1cnc2c(Nc3ccc(NC(=O)OC)cc3)nc(N[C@H]3CC[C@H](O)CC3)nc21 | 131 to 135 °C |
| Cc1noc(-c2ccc(C(F)(F)F)cc2)c1C(=O)Nc1ccccc1C(=O)O | 205 to 206 °C |

# input Item under review: CCC12CC(Cl)C3C4CCC(=O)C=C4CCC3C1C(OC(C)=O)CC2=O (stereo not given) . Reported melting point?
# output 125 °C

# input melting point lookup needed for "CCn1c(=O)ccc2cnc(Nc3ccc(N(C)C)cc3)nc21" , thanks.
# output 189 to 191 °C

# input Entry "Oc1ccc(C2N(c3ccccc3)CCN2c2ccccc2)c2cccnc12" has what melting point?
# output 190 to 196 °C

* * *

Consider the following compounds and their measured melting point readings.

| compound | melting point |
| --- | --- |
| Nc1cc(-c2nc3ccccn3c2Br)c(F)cc1F | 137 °C |
| CC1Cc2cc(S(N)(=O)=O)cc(C(=O)NC3CCN(Cc4ccccc4)CC3)c2O1 (stereo not given) | 226 to 228 °C |
| Cc1cc(CN2CC(=O)N(c3cnn(Cc4c(C)noc4C)c3)C2=O)n(C)n1 | 145 to 146 °C |
| O=C(O)CCc1oc(SCc2ccccn2)nc1-c1ccc(Cl)cc1 | 125 to 126 °C |

Proceed to the following item.
# input Request the reported melting point associated with "O=C(c1cccs1)c1cnn2c(-c3cccc(NC(=O)C4CCCCC4)c3)ccnc12"
# output 239 to 240 °C

* * *

Each entry below lists one item and its recorded melting point value.

Recorded melting point, per entry:
| compound | endpoint_label | experimental_value |
| --- | --- | --- |
| COc1ccc(-c2ncn(C3CCCCO3)c2-c2ccc(OC)cc2)cc1 (stereo unspecified) | melting point | 127 to 128 °C |
| COc1ccc(-n2c(-c3sc(Nc4ccccc4)nc3-c3ccccc3)nc3ccccc3c2=O)cc1 | melting point | 135 to 137 °C |
| CCCCCCCCCCCCn1nnc(C(C)(C)S(=O)(=O)Nc2c(C(C)C)cccc2C(C)C)n1 | melting point | 63 to 65 °C |
| CN(C(=O)Nc1c(F)cc(F)cc1CCc1cc(C(C)(C)C)c(O)c(C(C)(C)C)c1)C1CCN(Cc2ccccc2)CC1 | melting point | 187 to 191 °C |
| CCOC(=O)C(CC)c1ccc(N[C@@H](CCC(N)=O)C(=O)O)cc1 (stereo partly specified) | melting point | 157 °C |

# input Entry under review: "CCN(CC)C(=O)c1ccc(OC)cc1" . Reported melting point?
# output 40 to 42 °C

# input Fill blank: measured melting point of the compound "Cc1nc(-n2cccc(OCc3ccccc3)c2=O)sc1C(=O)NCc1ccccc1" is ____.
# output 198 to 201 °C

# input Data request, read-out melting point, for "CC(C)c1ccc(N2COCN(C)C2=O)cc1F"
# output 45 °C

* * *

endpoint_label: melting point

Examples with their reported melting point follow.
| compound | endpoint_label | experimental_value |
| --- | --- | --- |
| CN1CCN(C(=O)c2cc(Oc3ccc4c(c3)CCN4C(=O)Nc3cccc(C(F)(F)F)c3)ncn2)CC1 | melting point | 203 to 204 °C |
| COc1cc2c(cc1OC)C(Cc1ccc(NC(C)=O)c(I)c1)N(C(=O)C(F)(F)F)CC2 (stereo not given) | melting point | 174 to 175 °C |
| CC(C)c1[nH]n(-c2c(Cl)cc(Cl)cc2Cl)c2nc(C(O)c3ccccc3)nc(=O)c1-2 (stereo not given) | melting point | 246 to 248 °C |
| CS(=O)c1cc(CCC(=O)OC(C)(C)C)nc(-c2nc(=O)c3ccccc3s2)c1 (stereo not given) | melting point | 160 °C |

# evaluate next
# input Name the recorded melting point for "CCOC(=O)N1CCC(Nc2cc(OC)ccc2N)CC1" .
# output 97 to 99 °C

* * *

In this section, each of the compounds is paired with its reported melting point.

| compound | melting point |
| --- | --- |
| CN1C(=S)N(c2ccc(C#N)c(C(F)(F)F)c2)C(=O)C1(CF)CF | 122 to 123 °C |
| COc1cc(C(=O)c2nc(C(N)=O)c3ccccn23)ccc1N | 241 °C |

# input Find the recorded melting point belonging to "O=C(/C=C/c1ccc(C(F)(F)F)cc1-c1cccnc1)Nc1cnc2ccccc2c1" and report it.
# output 196 to 199 °C

# input Item under review: "O=C(c1ccc(F)cc1)C1CCN(C(=O)c2ccc([N+](=O)[O-])cc2)CC1" . Reported melting point?
# output 168 to 170 °C

# input Field request: melting point | item: "Cn1cc(Br)cc(Nc2ccccn2)c1=O"
# output 153 to 154 °C

# input I am curious: what melting point value has been reported for "CCOC(=O)CNc1cc(F)ccc1[N+](=O)[O-]" ?
# output 194 to 195 °C

# input Given "CCN1CCCN(c2cc(Cl)ccc2C)C1=S" , state its recorded melting point.
# output 111 to 112 °C

# input Given the entry "OCc1cnoc1-c1ccc(Cl)c(Cl)c1" , report its measured melting point.
# output 101 to 102 °C

# input Any idea what its melting point is? The compound is "C=Cc1c(N)nc(-c2ccc(Cl)c(OC)c2F)nc1C(=O)O"
# output 167 to 168 °C

# input Which melting point is listed for "Nc1ccc(C(=O)OCCCN2CCOCC2)c(N)c1" ?
# output 96 °C

# input // melting point lookup, key: CCOC(=O)c1cnc2n(c1=O)CCCC2CC(=O)O (stereo unspecified)
# output 156 to 157 °C
